// merged dataset of pKi values, system = Histamine H3 receptor (Homo sapiens), multiple refs
Sequence (Q9Y5N1 whole entry): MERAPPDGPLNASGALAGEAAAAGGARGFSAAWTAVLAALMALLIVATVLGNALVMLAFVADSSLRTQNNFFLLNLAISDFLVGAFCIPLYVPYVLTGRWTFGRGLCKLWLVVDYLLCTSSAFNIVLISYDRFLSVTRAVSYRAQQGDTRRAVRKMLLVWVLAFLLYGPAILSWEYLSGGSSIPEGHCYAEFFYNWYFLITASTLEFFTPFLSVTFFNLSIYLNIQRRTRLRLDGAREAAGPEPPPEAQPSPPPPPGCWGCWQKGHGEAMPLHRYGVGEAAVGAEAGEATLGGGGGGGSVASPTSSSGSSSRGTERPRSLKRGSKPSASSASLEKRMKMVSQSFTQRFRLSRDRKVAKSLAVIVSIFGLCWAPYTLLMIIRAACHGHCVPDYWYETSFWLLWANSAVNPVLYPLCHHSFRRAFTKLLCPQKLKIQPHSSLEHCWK
Reminder that pKi means the negative base-10 logarithm of the concentration expressed in mol/L.

The examples below pair each entry with its known result.
CC(C)C(=O)N[C@H](C)C(=O)N1CCCN(CCCOc2ccc(-c3noc(CC4CCCC4)n3)c(F)c2)CC1; 7.85
C[C@@H]1CCCN1CCc1cc2cc(C#N)ccc2o1; 9.35
c1nc(N2CCC(N3CCCCC3)CC2)c2ccn(CCN3CCOCC3)c2n1; 7.51
COc1ccc(C2CN(C)Cc3cc(OCCCN4CCC(O)CC4)ccc32)cc1 (stereo not given); 7.96

# context switch: different compound, same pKi
May I ask what pKi has been recorded for CNCCC(c1ccccc1)c1ccc(OCCN2CCCC2)cc1 (stereo not given) ? 8.85
